This section presents binders with their documented a-TSLP TARC bioassay (fold change to TSLP-0001) values.
molecular target: recombinant human TSLP (glycosylated long form) (human, UniProt Q969D9 29-159); test: cell-based or functional assay
Include the unit right after the number.

Some entries whose results are on file:
TSLP-0100 (antibody, human IgG1, V domains shown, also called IL413TSLP-0100) VH: QMQLVESGGGVVQPGRSLRLSCAASGFTFRTYGMHWVRQAPGKGLEWVAVIWYDGSNKHYADSVKGRFTISRDNSKNTLYLQMNSLRAEDTAVYYCARAPQWELVHEAFDIWGQGTMVTVSS VL: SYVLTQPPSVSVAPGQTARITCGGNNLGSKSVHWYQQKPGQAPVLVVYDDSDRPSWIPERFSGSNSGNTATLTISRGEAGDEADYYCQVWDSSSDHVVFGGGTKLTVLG; 0.9 fold
TSLP-2000 (antibody, human IgG1, lambda, V domains shown) VH: EMQLVESGGGLVQPGGSLRLSCAASGFTFRTYGMHWVRQAPGKGLEWVAVIWYDGSNKHYADSVKGRFTISRDNAKNSLYLQMNSLRAEDTAVYYCARAPQWYLVHEAFDIWGQGTMVTVSS VL: SYVLTQPPSVSVAPGQTARITCGGNNLGSKSVHWYQQKPGQAPVLVVYDDSDRPSWIPERFSGSNSGNTATLTISRGEAGDEADYYCQVWDSSSKHVVFGGGTKLTVLG; 7.2 fold

Read the next record carefully.
Problem: So what does the record say about a-TSLP TARC bioassay (fold change to TSLP-0001) for TSLP-0260 (antibody, V domains shown) VH: QMQLVESGGGVVQPGRSLRLSCAASGFTFRTYGMHWVRQAPGKGLEWVAVIWYDGSNKHYADSVKGRFTISRDNSKNTLYLQMNSLRAEDTAVYYCARAPQWYLVHEAFDIWGQGTMVTVSS VL: SYVLTQPPSVSVAPGQTARITCGGNNLGSKSVHWYQQKPGQAPVLVVYDDSDRPSWIPERFSGSNSGNTATLTISRGEAGDEADYYCQVWDESSDHVVFGGGTKLTVLG ?
Solution: 3.4 fold
